Cited source for all entries: paper PMC7177833

Tested target: ICLPa (isocitrate lyase from P. aeruginosa) (Pseudomonas aeruginosa)
Construct: made in house
Sequence (Q9I0K4 whole entry): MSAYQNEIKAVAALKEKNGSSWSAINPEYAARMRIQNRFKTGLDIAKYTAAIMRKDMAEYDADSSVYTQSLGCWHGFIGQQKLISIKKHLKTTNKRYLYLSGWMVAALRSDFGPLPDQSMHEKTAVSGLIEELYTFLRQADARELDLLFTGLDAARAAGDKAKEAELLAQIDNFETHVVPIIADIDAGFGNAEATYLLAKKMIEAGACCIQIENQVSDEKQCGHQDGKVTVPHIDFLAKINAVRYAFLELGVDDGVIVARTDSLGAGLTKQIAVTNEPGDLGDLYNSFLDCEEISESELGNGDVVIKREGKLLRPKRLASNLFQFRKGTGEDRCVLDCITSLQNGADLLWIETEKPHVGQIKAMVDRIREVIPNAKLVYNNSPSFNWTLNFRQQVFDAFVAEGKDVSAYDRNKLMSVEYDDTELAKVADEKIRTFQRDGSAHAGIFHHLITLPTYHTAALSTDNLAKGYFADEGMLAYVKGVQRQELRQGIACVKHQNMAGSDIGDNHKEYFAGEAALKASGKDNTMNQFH
Procedure text: Inhibition of purified ICLPa enzymatic activity
Type: biochemical
Condition label: 75 µM compound; read-out: Enzyme Inhibition (%) at 75 µM ICLPa
// label = condition met if inhibition at 75 µM is not less than 30%, otherwise condition not met

| Structure as smiles | Answer label |
| --- | --- |
| CC(C)(C)OC(=O)/N=C(\NC(=O)OC(C)(C)C)Nc1cc(F)ccn1 | condition met |
| CC(C)(C)OC(=O)/N=C(\NC(=O)OC(C)(C)C)Nc1cc(Cl)ccn1 | condition met |
| CC(C)(C)OC(=O)/N=C(\NC(=O)OC(C)(C)C)Nc1cc(Br)ccn1 | condition not met |
| COC(=O)c1ccnc(N/C(=N/C(=O)OC(C)(C)C)NC(=O)OC(C)(C)C)c1 | condition met |
| CC(C)(C)OC(=O)/N=C(\NC(=O)OC(C)(C)C)Nc1cc(C#N)ccn1 | condition met |
